target under test: Estrogen receptor (Homo sapiens) (UniProt P03372)
Sequence (P03372 whole entry, looked up): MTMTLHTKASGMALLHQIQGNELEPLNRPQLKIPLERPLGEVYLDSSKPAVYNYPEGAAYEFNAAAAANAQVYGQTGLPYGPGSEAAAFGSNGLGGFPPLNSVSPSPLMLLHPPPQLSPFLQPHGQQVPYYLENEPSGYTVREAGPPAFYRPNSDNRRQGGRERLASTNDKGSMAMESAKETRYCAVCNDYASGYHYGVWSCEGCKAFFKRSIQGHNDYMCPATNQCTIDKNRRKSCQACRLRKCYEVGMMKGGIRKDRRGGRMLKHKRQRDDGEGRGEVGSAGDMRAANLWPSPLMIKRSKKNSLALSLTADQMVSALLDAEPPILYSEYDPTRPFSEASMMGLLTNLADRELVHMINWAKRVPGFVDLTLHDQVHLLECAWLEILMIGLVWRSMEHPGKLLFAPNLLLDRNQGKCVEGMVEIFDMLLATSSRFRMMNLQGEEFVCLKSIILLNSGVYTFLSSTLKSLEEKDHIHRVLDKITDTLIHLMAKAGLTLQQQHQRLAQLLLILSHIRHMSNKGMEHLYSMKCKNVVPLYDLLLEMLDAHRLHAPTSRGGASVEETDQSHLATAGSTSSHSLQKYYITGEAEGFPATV
test details: qHTS assay to identify small molecule antagonists of the estrogen receptor alpha (ER-alpha) signaling pathway using the BG1 cell line in the presence of 0.1 nM 17-beta-estradiol (AID 1259244); further: nearly all actives have a fitted effect of over 50% in size
condition info: VM7Luc4E2 (BG1) ERE-luciferase, antagonist mode, 0.1 nM E2, 22 h; series mostly up to 92.4 µM
Records with an inconclusive call do not appear. Calls of active or inactive are those of the source. The call rests on the fitted dose curve; in most records, active means well fitted inhibition curve with a large enough effect in the repeat runs; inconclusive means weak or mixed curves; inactive means no such curve, though single readings can be large or run the other way.
Classes used: active, inactive

INSERT INTO assay_data (molecule, class_assignment) VALUES
  ('CC(=O)N(CC(O)CN(C(C)=O)c1c(I)c(C(=O)NCC(O)CO)c(I)c(C(=O)NCC(O)CO)c1I)c1c(I)c(C(=O)NCC(O)CO)c(I)c(C(=O)NCC(O)CO)c1I (stereo unspecified)', 'inactive'),
  ('O=C(O)c1cccc(Cl)c1Cl', 'inactive'),
  ('CCCOc1ccc2c(c1)CC[C@@H]1[C@@H]2CC[C@]2(C)C(OC)CC[C@@H]12 (stereo partly specified)', 'inactive'),
  ('CO[C@@]1(NC(=O)CSCC#N)C(=O)N2C(C(=O)O)=C(CSc3nnnn3C)CS[C@@H]21', 'inactive'),
  ('CCCCCOc1ccc(C2SC(=O)NC2=O)cc1OCC (stereo unspecified)', 'inactive'),
  ('CC(C)C1=CC2=CC[C@@H]3[C@](C)(CCC[C@@]3(C)C(=O)O)[C@H]2CC1', 'inactive'),
  ('CCCCC1CCC(=O)O1 (stereo unspecified)', 'inactive'),
  ('C=CCc1cc(OC)c(O)c(C(=O)NCCO)c1', 'inactive'),
  ('O=C(Cl)c1cccc([N+](=O)[O-])c1', 'inactive'),
  ('CC(C)(C)C1CCCCC1=O (stereo unspecified)', 'inactive'),
  ('O=C1CCN(c2ccccc2)N1', 'inactive'),
  ('OCC(CBr)(CBr)CBr', 'inactive'),
  ('CC(=O)N[C@@H](CC(C)C)C(=O)O', 'inactive'),
  ('FC(F)(F)C(Cl)(Cl)Cl', 'inactive'),
  ('CN(CCCN1c2ccccc2CCc2ccccc21)CC(=O)c1ccc(Cl)cc1', 'inactive'),
  ('O=C(CC(=O)C(F)(F)F)c1ccccc1', 'inactive'),
  ('C[C@]12C(=O)OC(=O)[C@H]1[C@H]1C=C[C@@H]2C1', 'inactive'),
  ('CC(=O)OC1C2(C)CCC(C2)C1(C)C (stereo unspecified)', 'inactive'),
  ('CCOc1ccccc1N', 'active'),
  ('NS(=O)(=O)c1cc(-c2nn[nH]n2)c(NCc2cccs2)cc1Cl', 'inactive'),
  ('CCC(=O)O[C@]1(C(=O)SCF)[C@H](C)C[C@H]2[C@@H]3C[C@H](F)C4=CC(=O)C=C[C@]4(C)[C@@]3(F)[C@@H](O)C[C@@]21C', 'inactive'),
  ('CCCCCCCCCC/C=C/C#N', 'inactive'),
  ('CCN(CCCc1ccccc1)CCCc1ccccc1', 'inactive'),
  ('CCOC(=O)NCCC[Si](OCC)(OCC)OCC', 'inactive'),
  ('O=C1N(c2ccccc2)c2ccccc2C1(Cc1ccncc1)Cc1ccncc1', 'inactive'),
  ('CC(C)S', 'inactive'),
  ('O=S(=O)(O)C(F)(F)F', 'inactive'),
  ('O=C1CCCCCCCCCCC(=O)OCCO1', 'inactive'),
  ('CCCNC(C)C(=O)Nc1c(C)csc1C(=O)OC (stereo unspecified)', 'inactive'),
  ('COc1cc(C)ccc1C(C)C', 'inactive'),
  ('CC(C)(CO)[C@@H](O)C(=O)NCCC(=O)O', 'inactive'),
  ('CC(C)C(=O)OCC(C)(C)C(O)C(C)C (stereo unspecified)', 'inactive'),
  ('CNCCC(Oc1ccccc1OC)c1ccccc1 (stereo unspecified)', 'inactive'),
  ('COc1cc(N)c(Cl)cc1C(=O)NC1CCN(Cc2ccccc2)CC1', 'inactive'),
  ('CC1(C)O[C@@H]2C[C@H]3[C@@H]4CCC5=CC(=O)CC[C@]5(C)[C@@]4(F)[C@@H](O)C[C@]3(C)[C@]2(C(=O)CCl)O1', 'inactive'),
  ('CC1=C2[C@H](/C=C(\C)C(=O)O)CC[C@@H](C)[C@H]2CC1', 'active'),
  ('CCCCCCCOC(=O)CCC', 'inactive'),
  ('CCCCNC(=S)NCCCC', 'inactive'),
  ('OCCN(CCO)c1ccccc1', 'inactive'),
  ('Nc1cccc(S(=O)(=O)O)c1', 'inactive'),
  ('CN1CCN(C2=Nc3cc(F)ccc3Cc3ccccc32)CC1', 'inactive'),
  ('Cc1nnc(SCC2=C(C(=O)O)N3C(=O)[C@@H](NC(=O)Cn4cnnn4)[C@H]3SC2)s1', 'inactive'),
  ('O=C1C=CC(=O)O1', 'inactive'),
  ('CCN[C@H]1CN(CCCOC)S(=O)(=O)c2sc(S(N)(=O)=O)cc21', 'inactive'),
  ('Cc1cc2c(s1)Nc1ccccc1N=C2N1CCN(C)CC1', 'inactive'),
  ('CCN(CC)CCOc1ccc(Cc2ccccc2)cc1', 'inactive'),
  ('Clc1cccc(-c2cc(Cl)cc(Cl)c2)c1', 'inactive'),
  ('CN1CCN(C2=Nc3ccccc3Oc3ccc(Cl)cc32)CC1', 'inactive'),
  ('CCCC(CCC)(C(=O)OCC)C(=O)OCC', 'inactive'),
  ('CC(C)c1ccccc1', 'inactive'),
  ('c1ccc(CN(CC2=NCCN2)c2ccccc2)cc1', 'inactive');
